meta.source: ChEMBL document CHEMBL1131446

Known pKi of a selection of molecules
system: Voltage-dependent L-type calcium channel subunit alpha-1D (Rattus norvegicus)
Sequence (P27732 whole entry): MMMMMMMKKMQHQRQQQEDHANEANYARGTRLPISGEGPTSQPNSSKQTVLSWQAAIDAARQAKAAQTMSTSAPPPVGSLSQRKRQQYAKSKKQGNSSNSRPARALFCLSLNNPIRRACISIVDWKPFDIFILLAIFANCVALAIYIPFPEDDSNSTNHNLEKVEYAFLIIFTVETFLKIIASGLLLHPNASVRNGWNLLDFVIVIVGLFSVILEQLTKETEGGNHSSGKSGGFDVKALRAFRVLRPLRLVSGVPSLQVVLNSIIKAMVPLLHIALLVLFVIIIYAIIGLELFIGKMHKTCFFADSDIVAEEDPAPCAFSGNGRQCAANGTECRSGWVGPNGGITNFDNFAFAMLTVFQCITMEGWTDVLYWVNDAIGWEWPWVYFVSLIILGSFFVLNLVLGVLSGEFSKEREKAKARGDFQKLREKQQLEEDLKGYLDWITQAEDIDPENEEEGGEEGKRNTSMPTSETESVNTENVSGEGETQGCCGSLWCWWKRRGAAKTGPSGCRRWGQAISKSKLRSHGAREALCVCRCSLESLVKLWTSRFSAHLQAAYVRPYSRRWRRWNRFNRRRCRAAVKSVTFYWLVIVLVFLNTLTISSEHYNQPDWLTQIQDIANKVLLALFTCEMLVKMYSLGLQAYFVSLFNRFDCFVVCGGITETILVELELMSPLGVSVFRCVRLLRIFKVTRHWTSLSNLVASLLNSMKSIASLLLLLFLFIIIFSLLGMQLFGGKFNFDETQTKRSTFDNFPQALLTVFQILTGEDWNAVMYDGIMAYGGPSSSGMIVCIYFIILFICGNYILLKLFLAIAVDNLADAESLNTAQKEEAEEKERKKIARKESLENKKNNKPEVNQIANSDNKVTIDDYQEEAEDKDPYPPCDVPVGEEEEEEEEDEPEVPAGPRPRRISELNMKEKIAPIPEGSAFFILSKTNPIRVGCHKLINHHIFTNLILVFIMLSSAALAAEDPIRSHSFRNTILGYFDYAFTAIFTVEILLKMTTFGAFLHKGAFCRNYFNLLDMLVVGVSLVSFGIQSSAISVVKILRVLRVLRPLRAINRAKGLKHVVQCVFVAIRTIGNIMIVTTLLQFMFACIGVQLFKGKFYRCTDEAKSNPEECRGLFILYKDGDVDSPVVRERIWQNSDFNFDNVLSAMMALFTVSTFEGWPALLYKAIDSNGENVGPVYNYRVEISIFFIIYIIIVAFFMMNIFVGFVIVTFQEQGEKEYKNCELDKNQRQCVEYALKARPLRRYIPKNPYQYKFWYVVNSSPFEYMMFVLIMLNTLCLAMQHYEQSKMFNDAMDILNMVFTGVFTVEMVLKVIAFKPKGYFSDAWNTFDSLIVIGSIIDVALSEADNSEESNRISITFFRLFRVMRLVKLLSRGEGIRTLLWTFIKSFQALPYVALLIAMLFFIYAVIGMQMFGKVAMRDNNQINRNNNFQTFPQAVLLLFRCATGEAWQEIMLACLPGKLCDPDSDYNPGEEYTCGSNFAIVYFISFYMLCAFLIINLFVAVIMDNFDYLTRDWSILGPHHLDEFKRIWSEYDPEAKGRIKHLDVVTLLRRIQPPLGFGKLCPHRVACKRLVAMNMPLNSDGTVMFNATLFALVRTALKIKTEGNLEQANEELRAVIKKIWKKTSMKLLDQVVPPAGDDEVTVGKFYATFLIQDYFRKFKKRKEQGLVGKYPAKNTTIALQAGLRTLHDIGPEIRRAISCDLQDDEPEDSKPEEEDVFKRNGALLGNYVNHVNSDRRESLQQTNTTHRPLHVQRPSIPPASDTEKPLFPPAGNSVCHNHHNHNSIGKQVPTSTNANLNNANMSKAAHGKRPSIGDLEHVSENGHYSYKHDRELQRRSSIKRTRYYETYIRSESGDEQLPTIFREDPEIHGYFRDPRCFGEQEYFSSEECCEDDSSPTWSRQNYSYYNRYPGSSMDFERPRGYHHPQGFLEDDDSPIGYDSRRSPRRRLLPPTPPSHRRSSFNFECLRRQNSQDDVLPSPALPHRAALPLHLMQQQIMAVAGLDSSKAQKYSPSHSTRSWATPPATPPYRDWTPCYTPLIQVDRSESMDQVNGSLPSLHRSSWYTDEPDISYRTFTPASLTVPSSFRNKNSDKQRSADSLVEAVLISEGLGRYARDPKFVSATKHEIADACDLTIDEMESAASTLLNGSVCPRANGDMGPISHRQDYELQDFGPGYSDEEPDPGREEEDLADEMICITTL
assay.explanation: Binding affinity for L-type [Ca2+] channels was measured through displacement of [3H]nitrendipine on rat cortex homogenates.
Lab note — pKi values are minus log10 of concentrations in M.

Take a look at these entries with their results.
# molecule, pKi
records = [
    ("COC(=O)C1=C(C)N=C(C)/C(=C(/O)OC)C1c1cccc(OCc2c(C)no[n+]2[O-])c1 (stereo not drawn)", 6.55),
    ("COC(=O)C1=C(C)N=C(C)/C(=C(/O)OC)C1c1cccc(OCc2nonc2C(N)=O)c1 (stereo not drawn)", 5.64),
]

Input: Given the molecule COC(=O)C1=C(C)N=C(C)/C(=C(/O)OC)C1c1ccccc1OCCO[N+](=O)[O-] (stereo not drawn) , what is its reported pKi?
Output: 7.42
